- Test system: CHIKV
- assay notes: CHIKV virus titer reduction (VTR) assay in NHDF cells
- Assay type: cell-based
- stated conditions: Chikungunya virus, read-out: CHIKV EC90 (μM)
Consider the cut-off 0.2 µM. If the recorded EC90 is strictly smaller, the label is Criterion met; if not, the label is Criterion not met.

molecule	qualitative label
O=C1CCc2cc(C(=O)Nc3cccc(C#Cc4ncccn4)c3)ccc2N1 [Compound 5]	Criterion not met

Q) Does the reported EC90 of the following molecule sit strictly below 0.2 µM? O=C1CCc2cc(NC(=O)c3cccc(C#Cc4ncccn4)c3)ccc2N1 [Compound 1]
A) Criterion met

Q) Does the reported EC90 of the following molecule sit strictly below 0.2 µM? O=C1CC(Cc2ccc(NC(=O)c3cccc(C#Cc4ncccn4)c3)cc2)C(=O)N1 (centres unmarked) [Compound 13]
A) Criterion met

Q) Does the reported EC90 of the following molecule sit strictly below 0.2 µM? O=C(Nc1ccc(N2CCCCC2=O)cc1)c1cccc(C#Cc2ncccn2)c1 [Compound 24]
A) Criterion not met

Q) Does the reported EC90 of the following molecule sit strictly below 0.2 µM? O=C1Cc2cc(NC(=O)c3cccc(C#Cc4ncccn4)c3)ccc2N1 [Compound 4]
A) Criterion met

Q) Does the reported EC90 of the following molecule sit strictly below 0.2 µM? O=C1CCCc2cc(NC(=O)c3cccc(C#Cc4ncccn4)c3)ccc2N1 [Compound 2]
A) Criterion met

Q) Does the reported EC90 of the following molecule sit strictly below 0.2 µM? O=C(Nc1ccc2c(c1)CCCC2)c1cccc(C#Cc2ncccn2)c1 [Compound 22]
A) Criterion not met

Q) Does the reported EC90 of the following molecule sit strictly below 0.2 µM? O=C(Nc1ccc2c(c1)CCCN2)c1cccc(C#Cc2ncccn2)c1 [Compound 12]
A) Criterion not met

Q) Does the reported EC90 of the following molecule sit strictly below 0.2 µM? O=C1CCc2cc(S(=O)(=O)Nc3cccc(C#Cc4ncccn4)c3)ccc2N1 [Compound 10]
A) Criterion not met

Q) Does the reported EC90 of the following molecule sit strictly below 0.2 µM? CC(C)(C#N)c1ccc(NC(=O)c2cccc(C#Cc3ncccn3)c2)cc1 [Compound 20]
A) Criterion met

Q) Does the reported EC90 of the following molecule sit strictly below 0.2 µM? O=C(Nc1ccc2c(c1)CCCCC2)c1cccc(C#Cc2ncccn2)c1 [Compound 8]
A) Criterion not met

Q) Does the reported EC90 of the following molecule sit strictly below 0.2 µM? O=C(Nc1cccc(C#Cc2ncccn2)c1)C12CC3CC(CC(C3)C1)C2 [Compound 11]
A) Criterion not met

Q) Does the reported EC90 of the following molecule sit strictly below 0.2 µM? O=C(Nc1ccc(C(F)(F)F)cc1)c1cccc(C#Cc2ncccn2)c1 [Compound 23]
A) Criterion not met

Q) Does the reported EC90 of the following molecule sit strictly below 0.2 µM? O=C1CCc2ccc(NC(=O)c3cccc(C#Cc4ncccn4)c3)cc2N1 [Compound 17]
A) Criterion not met

Q) Does the reported EC90 of the following molecule sit strictly below 0.2 µM? O=C(Nc1cccc(C#Cc2ncccn2)c1)c1nc2c(s1)CCCC2 [Compound 9]
A) Criterion not met

Q) Does the reported EC90 of the following molecule sit strictly below 0.2 µM? CN1C(=O)CCc2cc(NC(=O)c3cccc(C#Cc4ncccn4)c3)ccc21 [Compound 3]
A) Criterion met

###

- assay notes: in vitro
- Type: cell-based
- stated conditions: human
Would you kindly list CC50 for each of these compounds?

compound	result
O=C(NCc1ccc2c(c1)OC(F)(F)O2)c1cccc(C#Cc2ncccn2)c1 [Compound 7]	> 40 µM

Provide CC50 for all items below, preserving their order.
1. O=C1CCc2cc(S(=O)(=O)Nc3cccc(C#Cc4ncccn4)c3)ccc2N1 [Compound 10]
2. O=C(Nc1ccc(C(F)(F)F)cc1)c1cccc(C#Cc2ncccn2)c1 [Compound 23]
3. COc1cc(C#Cc2ncccn2)cc(C(=O)Nc2ccc3c(c2)CCC(=O)N3)c1 [Compound 14]
4. CC(C)(C#N)c1ccc(NC(=O)c2cccc(C#Cc3ncccn3)c2)cc1 [Compound 20]
5. O=C(Nc1cccc(C#Cc2ncccn2)c1)c1ccc(N2CCCCC2=O)cc1 [Compound 21]
6. CN1C(=O)CCc2cc(NC(=O)c3cccc(C#Cc4ncccn4)c3)ccc21 [Compound 3]

A)
["33.2 µM", "> 40 µM", "> 40 µM", "17.8 µM", "> 40 µM", "35.3 µM"]
